meta.source: patent US7268128B2

Target: PDE7 (type VII phosphodiesterase) (Homo sapiens)
Construct: endogenous in cells
Assay: PDE7 inhibiting activity (3H-cAMP hydrolysis, active fraction from MOLT-4 cells)
Conditions: PDE7 fraction from MOLT-4 cells, 0.064 μM cAMP, 10 μM rolipram present, 2 hours at 25° C.; read-out: IC50 values for phosphodiesterase inhibiting activities (PDE7)
pIC50: −log10 of the molar value.
Quick reference: pIC50 of the listed items.

Example entries and their recorded answers appear below.
In [3]: df
Out[3]:
                                   compound  observable  recorded_measurement
0  COc1cc(N2CCCNCC2)c(F)cc1-c1nc2c(C)nn(C3CCCCC3)c2c(=O)[nH]1 [Example 266]       pIC50                ≥ 6.00
1  COc1cc(S(=O)(=O)N2CCC(C(=O)O)CC2)ccc1-c1nc2c(c(C3CCCCC3)nn2C)c(=O)[nH]1 [Example 54]       pIC50                ≥ 6.00
2  COc1cc(C(=O)N2CCC(OC)CC2)ccc1-c1nc2c(c(C3CCCCC3)nn2C)c(=O)[nH]1 [Example 70]       pIC50                ≥ 6.00
3  CNCCN(C)S(=O)(=O)c1ccc(-c2nc3c(C)nn(C4CCCCC4)c3c(=O)[nH]2)c(OC)c1 [Example 212]       pIC50                ≥ 6.00
4  COc1cc(N2CCC(O)CC2)ccc1-c1nc2c(c(C3CCCCC3)nn2C)c(=O)[nH]1 [Example 31]       pIC50                ≥ 8.00
5  COc1ccc(F)cc1-c1nc2c(C)nn(C3CCCCC3)c2c(=O)[nH]1 [Example 18]       pIC50                ≥ 6.00

Fill in: PDE7 (type VII phosphodiesterase) (Homo sapiens) pIC50 for COc1cc(N2CCC(O)CC2)ccc1-c1nc2c(C)nn(C3CCCCC3)c2c(=O)[nH]1 [Example 258] = ≥ 6.00

Fill in: PDE7 (type VII phosphodiesterase) (Homo sapiens) pIC50 for COc1cc(N(C)C2CCN(C)CC2)ccc1-c1nc2c(C)nn(C3CCCCC3)c2c(=O)[nH]1 [Example 267] = ≥ 6.00

Fill in: PDE7 (type VII phosphodiesterase) (Homo sapiens) pIC50 for COCCNCc1ccc(-c2nc3c(C)nn(C4CCCCC4)c3c(=O)[nH]2)c(OC)c1 [Example 237] = ≥ 6.00

Fill in: PDE7 (type VII phosphodiesterase) (Homo sapiens) pIC50 for COc1cc(N2CCNCC2)c(F)cc1-c1nc2c(c(C3CCCCC3)nn2C)c(=O)[nH]1 [Example 81, monomethanesulfonate] = ≥ 8.00

Fill in: PDE7 (type VII phosphodiesterase) (Homo sapiens) pIC50 for COc1cc(S(=O)(=O)N2CCC(O)C2)ccc1-c1nc2c(c(C3CCCCC3)nn2C)c(=O)[nH]1 (stereo not drawn) [Example 164] = ≥ 6.00

====

Molecular target: PDE7 (type VII phosphodiesterase) (Homo sapiens)
Construct: endogenous in cells
Test: PDE7 inhibiting activity (3H-cAMP hydrolysis, active fraction from MOLT-4 cells)
Settings: PDE7 fraction from MOLT-4 cells, 0.064 μM cAMP, 10 μM rolipram present, 2 hours at 25° C.; read-out: IC50 values for phosphodiesterase inhibiting activities (PDE7)
pIC50: −log10 of the molar value.
Quick reference: pIC50 of the listed items.

>>> df
                                        mol  recorded_measurement
0  COc1cc(O[C@H]2CCOC2)ccc1-c1nc2c(c(C3CCCCC3)nn2C)c(=O)[nH]1                ≥ 8.00
1  CCN1CCN(S(=O)(=O)c2ccc(-c3nc4c(C)nn(C5CCCCC5)c4c(=O)[nH]3)c(OC)c2)CC1                ≥ 6.00

Data point: `COc1ccc(F)cc1-c1nc2c(c(C3CCCCC3)nn2C)c(=O)[nH]1` ; pIC50 = ≥ 6.00

Data point: `CCn1nc(C2CCCCC2)c2c(=O)[nH]c(-c3ccc(N4CCN(C)CC4)cc3OC)nc21` ; pIC50 = ≥ 6.00

====

Quick reference: IC50 of the listed items.
Molecular target: PDE7 (type VII phosphodiesterase) (Homo sapiens, UniProt Q13946)
Construct: endogenous in cells
Sequence (Q13946 whole entry): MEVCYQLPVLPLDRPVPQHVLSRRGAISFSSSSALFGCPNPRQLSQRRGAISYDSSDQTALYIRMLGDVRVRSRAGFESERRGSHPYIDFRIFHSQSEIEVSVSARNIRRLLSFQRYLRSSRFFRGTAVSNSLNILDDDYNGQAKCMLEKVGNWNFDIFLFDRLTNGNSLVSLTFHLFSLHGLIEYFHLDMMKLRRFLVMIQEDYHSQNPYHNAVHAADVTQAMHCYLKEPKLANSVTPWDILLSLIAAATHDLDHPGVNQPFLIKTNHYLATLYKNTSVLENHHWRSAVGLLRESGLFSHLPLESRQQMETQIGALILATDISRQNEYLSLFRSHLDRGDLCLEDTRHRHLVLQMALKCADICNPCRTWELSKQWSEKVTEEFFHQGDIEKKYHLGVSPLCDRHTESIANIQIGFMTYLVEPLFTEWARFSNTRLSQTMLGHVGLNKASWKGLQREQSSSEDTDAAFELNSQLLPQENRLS
Experiment: PDE7 inhibiting activity (3H-cAMP hydrolysis, active fraction from MOLT-4 cells)
Settings: PDE7 fraction from MOLT-4 cells, 0.064 μM cAMP, 10 μM rolipram present, 2 hours at 25° C.; read-out: IC50 values for phosphodiesterase inhibiting activities (PDE7)

Example entries and their recorded answers appear below.
>>> df
                                   compound                         system_under_test  recorded_measurement
0  CNC1CCN(c2ccc(-c3nc4c(c(C5CCCCC5)nn4C)c(=O)[nH]3)cc2)CC1 [Example 189, monomethanesulfonate]  PDE7 (type VII phosphodiesterase) (Homo sapiens, UniProt Q13946)             ≤ 1000 nM
1  COc1cc(S(=O)(=O)N2CCC(N)CC2)ccc1-c1nc2c(c(C3CCCCC3)nn2C)c(=O)[nH]1 [Example 175, monomethanesulfonate]  PDE7 (type VII phosphodiesterase) (Homo sapiens, UniProt Q13946)             ≤ 1000 nM
2  COc1cc(NC2CCN(C(C)=O)CC2)ccc1-c1nc2c(C)nn(C3CCCCC3)c2c(=O)[nH]1 [Example 231]  PDE7 (type VII phosphodiesterase) (Homo sapiens, UniProt Q13946)             ≤ 1000 nM

Next item in the queue.
Data point: CCNC1CCN(c2ccc(-c3nc4c(C)nn(C5CCCCC5)c4c(=O)[nH]3)c(OCC)c2)CC1 [Example 253] ; IC50 = ≤ 1000 nM

====

Quick reference: IC50 of the listed items.
Target: PDE7 (type VII phosphodiesterase) (Homo sapiens, UniProt Q13946)
Construct: endogenous in cells
Experiment: PDE7 inhibiting activity (3H-cAMP hydrolysis, active fraction from MOLT-4 cells)
Settings: PDE7 fraction from MOLT-4 cells, 0.064 μM cAMP, 10 μM rolipram present, 2 hours at 25° C.; read-out: IC50 values for phosphodiesterase inhibiting activities (PDE7)

Example entries and their recorded answers appear below.
>>> df
                                   molecule  recorded_measurement
0  Cn1nc(C2CCCCC2)c2c(=O)[nH]c(-c3ccccn3)nc21                ≤ 1 µM
1  CCOc1cc(N2CCNCC2)ccc1-c1nc2c(C)nn(C3CCCCC3)c2c(=O)[nH]1                ≤ 1 µM
2  COc1cc(C(=O)N2CCC(O)CC2)ccc1-c1nc2c(c(C3CCCCC3)nn2C)c(=O)[nH]1                ≤ 1 µM
3  COc1cc(N2CC[C@@H](O)C2)ccc1-c1nc2c(C)nn(C3CCCCC3)c2c(=O)[nH]1                ≤ 1 µM
4  COc1cc(N2CCC(C(=O)O)CC2)ccc1-c1nc2c(c(C3CCCCC3)nn2C)c(=O)[nH]1             ≤ 0.01 µM
5  CCOc1cc(N2CCN(C)CC2)ccc1-c1nc2c(c(C3CCCCC3)nn2C)c(=O)[nH]1 [Example 87, monomethanesulfonate]             ≤ 0.01 µM

Data point: `CCn1nc(C2CCCCC2)c2c(=O)[nH]c(-c3ccc(S(=O)(=O)N4CCCNCC4)cc3OC)nc21` ; IC50 = ≤ 1 µM

Data point: `COc1cc(NC(C)=O)ccc1-c1nc2c(C)nn(C3CCCCC3)c2c(=O)[nH]1` ; IC50 = ≤ 1 µM

====

Target: PDE7 (type VII phosphodiesterase) (Homo sapiens)
Construct: endogenous in cells; host or cells: MOLT-4 (ATCC CRL-1582), soluble fraction, HiTrapQ anion-exchange fraction
Assay: PDE7 inhibiting activity (3H-cAMP hydrolysis, active fraction from MOLT-4 cells)
Type: biochemical
Conditions: PDE7 fraction from MOLT-4 cells, 0.064 μM cAMP, 10 μM rolipram present, 2 hours at 25° C.; read-out: IC50 values for phosphodiesterase inhibiting activities (PDE7)
pIC50: −log10 of the molar value.
Quick reference: pIC50 of the listed items.

Example entries and their recorded answers appear below.
>>> df
                                   compound  recorded_measurement
0  CNC1CCN(c2ccc(-c3nc4c(c(C5CCCCC5)nn4C)c(=O)[nH]3)c(OC)c2)CC1 [Example 150, monomethanesulfonate]                ≥ 8.00
1  COc1cc(CN2CCN(C)CC2)ccc1-c1nc2c(C)nn(C3CCCCC3)c2c(=O)[nH]1                ≥ 6.00

Data point: `COc1cc(N2CCCNCC2)ccc1-c1nc2c(C)nn(C3CCCCC3)c2c(=O)[nH]1` ; pIC50 = ≥ 8.00

Data point: `COc1cc(S(=O)(=O)N2CCNCC2)ccc1-c1nc2c(C)nn(C3CCCCC3)c2c(=O)[nH]1` ; pIC50 = ≥ 6.00
